- Test system: L1210 leukemia ip in BDF1 mice, survival T/C
- Method Description: NCI In Vivo Anticancer Drug Screen. Data for tumor model L1210 Leukemia (intraperitoneal) in B6D2F1 (BDF1) mice
- Test Conditions: endpoint: mean survival time; dose: 300.0 mg/kg/injection; schedule: Q01DX001 (ip); vehicle: saline; higher = longer survival
Toxic doses and inconclusive results are not listed.
Quantity: T/C

Check out these entries, answers already filled in.
Nc1ncnc2c1ncn2C1OC(CO)C(NC(=S)SCc2ccccc2)C1O (stereo not given) | 101 % of control
CCN(CC)C(=O)N1CCN(c2ccc(Cl)cc2)CC1 | 108 % of control
NC(=O)c1ccccc1I | 96 % of control
OC1CSC2=[N+]1CCS2 (stereo not given) | 111 % of control

Now, please, on to the next compound.
Look at this compound and give its reported T/C. CC(=O)Oc1ccc[nH]c1=O
110 % of control

---

- System: L1210 leukemia ip in BDF1 mice, survival T/C
- Method Description: NCI In Vivo Anticancer Drug Screen. Data for tumor model L1210 Leukemia (intraperitoneal) in B6D2F1 (BDF1) mice
- Test Conditions: endpoint: mean survival time; dose: 12.5 mg/kg/injection; schedule: Q04DX003 (ip); vehicle: saline; higher = longer survival
Toxic doses and inconclusive results are not listed.
Quantity: T/C

Check out these entries, answers already filled in.
C/C(CCCCl)=N/N=C(N)N | 100 % of control
CN=NC(C)(C)OC(C)=O | 107 % of control
C1=C(c2ccccc2)[P+](c2ccccc2)(c2ccccc2)C=C(c2ccccc2)[P+]1(c1ccccc1)c1ccccc1 | 106 % of control

Under L1210 leukemia ip in BDF1 mice, survival T/C: T/C value of CCOc1ccc(NC(=O)C(C(C)N2CCCCC2)N2CCCCC2)cc1 (stereo not given) ?
97 % of control

Under L1210 leukemia ip in BDF1 mice, survival T/C: T/C value of CCN(CC)CCC(CNC(=O)CN(CC)CC)(c1cccc2ccccc12)C(C)C (stereo not given) ?
94 % of control

Under L1210 leukemia ip in BDF1 mice, survival T/C: T/C value of NC(=S)c1ccc(N)cc1 ?
105 % of control

Under L1210 leukemia ip in BDF1 mice, survival T/C: T/C value of CCOC(=O)N1CCN(Cn2cc3c4c(cccc42)C2CC(C(=O)NC(C)C)CN(C)C2C3)CC1 (stereo not given) ?
97 % of control

---

- Test system: L1210 leukemia ip in BDF1 mice, survival T/C
- Method Description: NCI In Vivo Anticancer Drug Screen. Data for tumor model L1210 Leukemia (intraperitoneal) in B6D2F1 (BDF1) mice
- Test Conditions: endpoint: mean survival time; dose: 400.0 mg/kg/injection; schedule: Q01DX009 (ip); vehicle: saline with Tween-80; higher = longer survival
Inconclusive results and toxic doses are left out.
Known T/C of a selection of compounds

Check out these entries, answers already filled in.
N=Cc1c(O)n(-c2ccccc2)c(=O)n(-c2ccccc2)c1=O | 93 % of control
S=c1nc(COc2ccccc2Cl)[nH][nH]1 | 98 % of control
CCCCCCCCC1C(CCCCCCCC(=O)OC)SC(F)(F)C1(F)F (stereo not drawn) | 102 % of control
O=[N+]([O-])c1cc(Br)cc(Br)c1 | 93 % of control
COc1ccccc1NC(=O)Nc1cc(C)cc(C)n1 | 104 % of control

Look at this compound and give its reported T/C. CCCCNC(C)(C)CSS(=O)(=O)O
103 % of control

Look at this compound and give its reported T/C. CCOC(=O)C(Cc1ccc(Cl)c(Cl)c1)(Cc1ccc(Cl)c(Cl)c1)C(=O)OCC
95 % of control

Look at this compound and give its reported T/C. O=S(=O)(Nc1ccc(Br)cc1)c1ccccc1
95 % of control

Look at this compound and give its reported T/C. CC(OC(=O)Nc1ccccc1)C(=O)O (stereo not drawn)
95 % of control

Look at this compound and give its reported T/C. CC(=O)Nc1ccccc1C(=O)O
100 % of control

Look at this compound and give its reported T/C. CNS(=O)(=O)c1ccc(N)cc1
98 % of control

Look at this compound and give its reported T/C. Cc1ccccc1C(c1ccccc1)C(CC(=O)O)CC(=O)O (stereo not drawn)
93 % of control

Look at this compound and give its reported T/C. COC(=O)c1ccc(SSc2ccc(C(=O)OC)cc2[N+](=O)[O-])c([N+](=O)[O-])c1
92 % of control

---

Known T/C of a selection of molecules
- Tested on: L1210 leukemia ip in BDF1 mice, survival T/C
- Method Description: NCI In Vivo Anticancer Drug Screen. Data for tumor model L1210 Leukemia (intraperitoneal) in B6D2F1 (BDF1) mice
- Test Conditions: endpoint: mean survival time; dose: 400.0 mg/kg/injection; schedule: Q04DX003 (ip); vehicle: saline; higher = longer survival
Inconclusive results and toxic doses are left out.

c1ccc2c(c1)C1c3cccc[n+]3C2CC1n1c2ccccc2c2ccccc21 (configuration not stated) | 94 % of control
CCCCN1C(=O)CCC1=O | 110 % of control
O=C1NC(=O)C(CO)(CO)N1 | 105 % of control
CC(=O)NN(CCN(NC(C)=O)C(C)=O)C(C)=O | 101 % of control
CCN(CC)C(=O)c1ccccc1 | 105 % of control
CCCC(=O)Nc1ccc(NS(C)(=O)=O)cc1OC | 100 % of control
N#CC(=N)N1CCCCC1 | 109 % of control
CC(=O)C(=O)N1Cc2cc3ccccc3nc2C1 | 102 % of control
CCc1c[n+]([O-])c(C)cc1[N+](=O)[O-] | 95 % of control
CCOc1ccc(Br)cc1/C=C/C(C)=O | 97 % of control

Look at this molecule and give its reported T/C. CC(=O)OC1C=COC(C)C1OC(C)=O (configuration not stated)
96 % of control

Look at this molecule and give its reported T/C. COC(=O)C(N)CSCc1ccccc1 (configuration not stated)
94 % of control

---

Known T/C of a selection of compounds
- Tested on: L1210 leukemia ip in BDF1 mice, survival T/C
- Method Description: NCI In Vivo Anticancer Drug Screen. Data for tumor model L1210 Leukemia (intraperitoneal) in B6D2F1 (BDF1) mice
- Test Conditions: endpoint: mean survival time; dose: 200.0 mg/kg/injection; schedule: Q01DX009 (ip); vehicle: saline; higher = longer survival
Inconclusive results and toxic doses are left out.

Check out these entries, answers already filled in.
COC(=O)C1C2C3CC(C4CC43)C12 (centres undefined) | 92 % of control
Cc1ccccc1OCC(O)CO (centres undefined) | 102 % of control
NC(=O)NNC1OCC(O)C(O)C1O (centres undefined) | 95 % of control
N#Cc1cnccn1 | 104 % of control
CCCN=C(N)C(N)=NCCC | 92 % of control
Cc1cc(O)c2c(c1O)C(=O)c1ccccc1C2=O | 95 % of control

Look at this compound and give its reported T/C. Cc1cc(NC(=O)NCc2ccc(N3C(N)=NC(N)=NC3(C)C)cc2)ccc1S(=O)(=O)F
107 % of control

Look at this compound and give its reported T/C. NC(Cc1c[nH]c2ccccc12)C(=O)O (centres undefined)
94 % of control

Look at this compound and give its reported T/C. CCC1CCCCC1(O)CC (centres undefined)
98 % of control

---

- System: L1210 leukemia ip in BDF1 mice, survival T/C
- Method Description: NCI In Vivo Anticancer Drug Screen. Data for tumor model L1210 Leukemia (intraperitoneal) in B6D2F1 (BDF1) mice
- Test Conditions: endpoint: mean survival time; dose: 200.0 mg/kg/injection; schedule: Q04DX003 (ip); vehicle: saline with Tween-80; higher = longer survival
Toxic doses and inconclusive results are not listed.
Known T/C of a selection of compounds

C=CCOc1ncnc2nc[nH]c12 | 96 % of control
COP(=S)(N/N=C/c1ccccn1)OC | 97 % of control

Look at this compound and give its reported T/C. OC1c2ccccc2C(c2ccccc2)C1c1ccccc1 (stereo not drawn)
87 % of control

Look at this compound and give its reported T/C. Cc1cc(N2C(=O)CSC2=S)ccc1Br
93 % of control

Look at this compound and give its reported T/C. CCOC(=O)CCCc1c[nH]c2ccccc12
100 % of control

Look at this compound and give its reported T/C. COc1ccc(C(=O)NC(=S)Nc2ccc(CCO)cc2)cc1
94 % of control

Look at this compound and give its reported T/C. CCCCNC(C)(C)CSS(=O)(=O)O
96 % of control

---

Known T/C of a selection of molecules
- Tested on: L1210 leukemia ip in BDF1 mice, survival T/C
- Method Description: NCI In Vivo Anticancer Drug Screen. Data for tumor model L1210 Leukemia (intraperitoneal) in B6D2F1 (BDF1) mice
- Test Conditions: endpoint: mean survival time; dose: 25.0 mg/kg/injection; schedule: Q01DX009 (ip); vehicle: saline with Tween-80; higher = longer survival
Inconclusive results and toxic doses are left out.

Check out these entries, answers already filled in.
ClC1=C(Cl)C2(Cl)CC1(Cl)C1OC12 (stereo not given) | 104 % of control
COc1ccc2nc(N)sc2c1 | 89 % of control
Nc1nc2ncc(CNc3ccc(C(=O)NC(CCC(=O)O)C(=O)O)cn3)nc2c(=O)[nH]1 (stereo not given) | 104 % of control
Cc1ccc(N2CCN(CCCN3CCN(c4ccccc4Cl)CC3)CC2)cc1 | 94 % of control
C=C/C(C)=C/[C@H](C)C(=O)C[C@H](O)CC1CC(=O)NC(=O)C1 | 120 % of control

Look at this molecule and give its reported T/C. CCCOCCC(c1ccccc1)(c1ccccc1)c1ccccc1
98 % of control

Look at this molecule and give its reported T/C. COC(=O)c1ccccc1NC(=S)NC(=O)c1ccccc1F
93 % of control

Look at this molecule and give its reported T/C. O=C(NO)c1cc(Br)cc(Br)c1O
98 % of control

Look at this molecule and give its reported T/C. Cc1cccc(N2C(=O)CSC2=S)c1
90 % of control

Look at this molecule and give its reported T/C. COc1ccccc1OCC(O)COc1ccccc1OC
95 % of control
